# system under test: T1, human MSLN-hFc protein (Acro, Cat. No. MSN-H5253) (human, UniProt Q13421 296-580)
# T1 construct: the method names the coated protein as human MSLN-hFc (Acro); also called human MSLN full-length protein
# T1 sequence (Q13421 other isoform, or with tags, fused parts or gaps limits assumed): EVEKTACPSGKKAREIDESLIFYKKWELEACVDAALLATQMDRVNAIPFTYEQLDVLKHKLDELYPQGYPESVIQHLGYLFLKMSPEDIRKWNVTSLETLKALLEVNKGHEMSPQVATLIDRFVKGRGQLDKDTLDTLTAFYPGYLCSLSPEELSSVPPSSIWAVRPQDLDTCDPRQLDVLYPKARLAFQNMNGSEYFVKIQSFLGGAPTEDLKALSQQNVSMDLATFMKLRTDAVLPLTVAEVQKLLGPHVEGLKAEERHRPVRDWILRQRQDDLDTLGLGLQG
# experiment notes: ELISA on coated antigen, antibody 0.01 nM
OD450 values for the binders below.

binder | OD450
F7.44.20-H6 (scFv, not shown: small tags and cut ends, also called S009-F7.44.20 humanized antibody VH1a + VL2) scFv: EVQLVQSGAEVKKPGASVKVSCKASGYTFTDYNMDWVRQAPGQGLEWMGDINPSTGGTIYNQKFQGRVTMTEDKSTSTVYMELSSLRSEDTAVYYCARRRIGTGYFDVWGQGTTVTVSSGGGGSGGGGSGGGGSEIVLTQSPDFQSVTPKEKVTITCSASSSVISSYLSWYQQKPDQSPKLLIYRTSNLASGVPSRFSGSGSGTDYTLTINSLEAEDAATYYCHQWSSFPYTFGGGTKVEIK | 0.07 OD450
F7.44.20-H8 (scFv, not shown: small tags and cut ends, also called S009-F7.44.20 humanized antibody VH1a + VL4) scFv: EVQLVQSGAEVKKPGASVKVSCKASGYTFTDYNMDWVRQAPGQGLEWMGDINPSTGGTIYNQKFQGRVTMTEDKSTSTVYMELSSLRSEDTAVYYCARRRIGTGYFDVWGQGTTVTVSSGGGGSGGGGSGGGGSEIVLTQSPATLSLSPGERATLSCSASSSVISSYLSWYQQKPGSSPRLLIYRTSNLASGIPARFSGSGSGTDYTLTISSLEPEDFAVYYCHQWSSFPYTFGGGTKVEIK | 0.05 OD450
F7.44.20-H13 (scFv, not shown: small tags and cut ends, also called S009-F7.44.20 humanized antibody VH2a + VL1) scFv: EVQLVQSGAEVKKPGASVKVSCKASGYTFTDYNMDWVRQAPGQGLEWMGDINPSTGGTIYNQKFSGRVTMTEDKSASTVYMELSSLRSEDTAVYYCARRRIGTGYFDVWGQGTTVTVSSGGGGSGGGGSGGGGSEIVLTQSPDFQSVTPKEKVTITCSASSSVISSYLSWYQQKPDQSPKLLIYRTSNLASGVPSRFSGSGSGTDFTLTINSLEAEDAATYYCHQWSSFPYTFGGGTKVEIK | 0.06 OD450
F7.44.20 (scFv, not shown: small tags and cut ends, also called S009-F7.44.20 (parental variable regions, in the humanized-antibody ELISA)) scFv: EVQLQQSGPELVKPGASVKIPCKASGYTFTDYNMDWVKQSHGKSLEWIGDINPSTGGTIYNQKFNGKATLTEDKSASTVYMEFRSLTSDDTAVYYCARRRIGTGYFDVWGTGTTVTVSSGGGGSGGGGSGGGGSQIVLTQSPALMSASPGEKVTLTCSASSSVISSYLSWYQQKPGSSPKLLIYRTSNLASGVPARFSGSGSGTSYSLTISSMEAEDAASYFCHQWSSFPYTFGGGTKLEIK | 0.05 OD450
F7.44.20-H10 (scFv, not shown: small tags and cut ends, also called S009-F7.44.20 humanized antibody VH2 + VL2) scFv: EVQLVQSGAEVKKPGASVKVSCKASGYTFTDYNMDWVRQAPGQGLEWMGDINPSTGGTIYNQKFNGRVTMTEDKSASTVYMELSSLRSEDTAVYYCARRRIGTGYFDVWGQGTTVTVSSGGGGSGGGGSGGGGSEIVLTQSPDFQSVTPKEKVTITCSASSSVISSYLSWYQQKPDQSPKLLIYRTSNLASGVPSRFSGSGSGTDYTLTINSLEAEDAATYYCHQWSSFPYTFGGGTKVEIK | 0.06 OD450
